B1: glmS ribozyme (parent)
chain: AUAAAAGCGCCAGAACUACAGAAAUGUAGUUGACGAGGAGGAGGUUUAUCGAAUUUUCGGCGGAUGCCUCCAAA

# Variants of: B1
# test.name: self-cleavage kobs at 10000 uM GlcN6P; higher = faster cleavage; RNA array
# measurement.conditions: with glucosamine-6-phosphate
This sample holds only a part of the variants without activity.
Quick reference: self-cleavage kobs at 10000 uM GlcN6P of the listed items.

[
  {
    "mutations": "G29A C67U",
    "qualifying.sign": "=",
    "self-cleavage kobs at 10000 uM GlcN6P (s⁻¹)": 0.00104
  },
  {
    "mutations": "A14G U30A A39G A53C",
    "qualifying.sign": "=",
    "self-cleavage kobs at 10000 uM GlcN6P (s⁻¹)": 0.00799
  },
  {
    "mutations": "G9U G13A",
    "qualifying.sign": "<",
    "self-cleavage kobs at 10000 uM GlcN6P (s⁻¹)": "1e-05"
  },
  {
    "mutations": "G7A G37C A42U",
    "qualifying.sign": "<",
    "self-cleavage kobs at 10000 uM GlcN6P (s⁻¹)": "1e-05"
  },
  {
    "mutations": "A53G U55G",
    "qualifying.sign": "=",
    "self-cleavage kobs at 10000 uM GlcN6P (s⁻¹)": 0.0622
  },
  {
    "mutations": "C10G A14G C16A G41C",
    "qualifying.sign": "<",
    "self-cleavage kobs at 10000 uM GlcN6P (s⁻¹)": "1e-05"
  },
  {
    "mutations": "A36G U49A",
    "qualifying.sign": "<",
    "self-cleavage kobs at 10000 uM GlcN6P (s⁻¹)": "1e-05"
  },
  {
    "mutations": "U56C C61G",
    "qualifying.sign": "<",
    "self-cleavage kobs at 10000 uM GlcN6P (s⁻¹)": "1e-05"
  },
  {
    "mutations": "C34U C61A C67U",
    "qualifying.sign": "=",
    "self-cleavage kobs at 10000 uM GlcN6P (s⁻¹)": 0.000236
  },
  {
    "mutations": "U45A C70U",
    "qualifying.sign": "=",
    "self-cleavage kobs at 10000 uM GlcN6P (s⁻¹)": 0.0102
  },
  {
    "mutations": "G40U U45G",
    "qualifying.sign": "=",
    "self-cleavage kobs at 10000 uM GlcN6P (s⁻¹)": 0.00134
  },
  {
    "mutations": "A15U A39G C71G",
    "qualifying.sign": "=",
    "self-cleavage kobs at 10000 uM GlcN6P (s⁻¹)": 0.000288
  },
  {
    "mutations": "G29C U47A C50A",
    "qualifying.sign": "<",
    "self-cleavage kobs at 10000 uM GlcN6P (s⁻¹)": "1e-05"
  },
  {
    "mutations": "A42G U49A C50G",
    "qualifying.sign": "<",
    "self-cleavage kobs at 10000 uM GlcN6P (s⁻¹)": "1e-05"
  },
  {
    "mutations": "C8G C58U C61U",
    "qualifying.sign": "<",
    "self-cleavage kobs at 10000 uM GlcN6P (s⁻¹)": "1e-05"
  },
  {
    "mutations": "U46G U47G C67A",
    "qualifying.sign": "=",
    "self-cleavage kobs at 10000 uM GlcN6P (s⁻¹)": 0.0021
  },
  {
    "mutations": "A33U C67U",
    "qualifying.sign": "=",
    "self-cleavage kobs at 10000 uM GlcN6P (s⁻¹)": "4.16e-05"
  },
  {
    "mutations": "C16A U55A",
    "qualifying.sign": "=",
    "self-cleavage kobs at 10000 uM GlcN6P (s⁻¹)": 0.00285
  },
  {
    "mutations": "C16G G29U U46G",
    "qualifying.sign": "=",
    "self-cleavage kobs at 10000 uM GlcN6P (s⁻¹)": 0.00136
  },
  {
    "mutations": "G29U G44A",
    "qualifying.sign": "=",
    "self-cleavage kobs at 10000 uM GlcN6P (s⁻¹)": "3.45e-05"
  },
  {
    "mutations": "G40U U45C",
    "qualifying.sign": "=",
    "self-cleavage kobs at 10000 uM GlcN6P (s⁻¹)": 0.000329
  },
  {
    "mutations": "G9U A14G",
    "qualifying.sign": "<",
    "self-cleavage kobs at 10000 uM GlcN6P (s⁻¹)": "1e-05"
  }
]
